# maps each entry to its enrichment ratio
B1: PhoQ; a variant is named by its letters at X, in order, P23837 (parent)
chain: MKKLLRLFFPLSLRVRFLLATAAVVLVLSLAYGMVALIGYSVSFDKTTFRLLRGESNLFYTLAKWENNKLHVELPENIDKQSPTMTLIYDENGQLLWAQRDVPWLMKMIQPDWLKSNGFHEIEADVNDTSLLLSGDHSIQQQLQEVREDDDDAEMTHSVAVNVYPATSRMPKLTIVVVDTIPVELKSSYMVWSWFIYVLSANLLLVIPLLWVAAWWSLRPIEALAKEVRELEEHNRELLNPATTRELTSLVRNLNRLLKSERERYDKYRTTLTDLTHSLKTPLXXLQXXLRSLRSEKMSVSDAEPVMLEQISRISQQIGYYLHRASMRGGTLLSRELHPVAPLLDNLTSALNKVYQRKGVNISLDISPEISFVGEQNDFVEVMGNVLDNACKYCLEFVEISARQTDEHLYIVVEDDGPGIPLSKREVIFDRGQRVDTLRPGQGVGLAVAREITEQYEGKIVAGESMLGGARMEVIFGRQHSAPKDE

Variants of: B1
Test: enrichment ratio after two sorts for PhoP signalling (ratio (wild type AVST 3.29)); higher = more functional
Conditions: with PhoP (E. coli)
Whole data set: some 140,000 sequences, median “enrichment ratio after two sorts for PhoP signalling” near 0, cut for the highest 2% near 11. What follows is part of a selection rich in the highest values, with near analogues and random picks from the rest.

{"mutant": "SGTL", "enrichment ratio": 7.51}
{"mutant": "EMGW", "enrichment ratio": "≤ 0.25"}
{"mutant": "DNMN", "enrichment ratio": "≤ 0.25"}
{"mutant": "VIYV", "enrichment ratio": "≤ 0.25"}
{"mutant": "FDLI", "enrichment ratio": "≤ 0.25"}
{"mutant": "ADLA", "enrichment ratio": 0.619}
{"mutant": "HTYY", "enrichment ratio": "≤ 0.25"}
{"mutant": "SELN", "enrichment ratio": 8.08}
{"mutant": "ADLT", "enrichment ratio": 11.3}
{"mutant": "AADK", "enrichment ratio": "≤ 0.25"}
{"mutant": "GNWY", "enrichment ratio": "≤ 0.25"}
{"mutant": "ADLI", "enrichment ratio": 16.8}
{"mutant": "VCTT", "enrichment ratio": "≤ 0.25"}
{"mutant": "LCTT", "enrichment ratio": "≤ 0.25"}
{"mutant": "TVDW", "enrichment ratio": "≤ 0.25"}
{"mutant": "PAYF", "enrichment ratio": "≤ 0.25"}
{"mutant": "PSPA", "enrichment ratio": "≤ 0.25"}

Values from a collection of fitness landscapes (doi:10.1126/science.1257360)
